FYI, the data here is from patent US20230265151A1.

Biological target: hGLP-1R (Homo sapiens, UniProt P43220)
Experiment: cell-based or functional assay
Collected cAMP Emax values appear next to each entry.
READOUT_KIND: cAMP Emax (%)

BINDER	READOUT_KIND	RESULT_NUMBER
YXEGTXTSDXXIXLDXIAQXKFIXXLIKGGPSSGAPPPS (Y-Aib-EGT-αMeF(2F)-TSD-4Pal-Aib-I-αMeL-LD-Orn-IAQ-Aib-K((2-[2-(2-Amino-ethoxy)-ethoxy]-acetyl)-(γ-Glu)-CO-(CH2)12-CO2H)FI-(D-Glu)-αMeY-LIK((2-[2-(2-Amino-ethoxy)-ethoxy]-acetyl)-(γ-Glu)-CO-(CH2)12-CO2H)GGPSSGAPPPS-NH2) [Example 340]	cAMP Emax	105
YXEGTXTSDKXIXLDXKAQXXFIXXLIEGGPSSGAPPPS (Y-Aib-EGT-αMeF(2F)-TSDK((2-[2-(2-Amino-ethoxy)-ethoxy]-acetyl)3-(γ-Glu)-CO-(CH2)10-CH3)-Aib-I-αMeL-LD-Orn-K((2-[2-(2-Amino-ethoxy)-ethoxy]-acetyl)3-(γ-Glu)-CO-(CH2)10-CH3)AQ-Aib-Orn-FI-(D-Glu)-αMeY-LIEGGPSSGAPPPS-NH2) [Example 432]	cAMP Emax	106
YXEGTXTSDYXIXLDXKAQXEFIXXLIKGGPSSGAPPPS (Y-Aib-EGT-αMeF(2F)-TSDY-Aib-I-αMeL-LD-Orn-K((2-[2-(2-Amino-ethoxy)-ethoxy]-acetyl)2-(γ-Glu)-CO-(CH2)10-CH3)AQ-Aib-EFI-(D-Glu)-αMeY-LIK((2-[2-(2-Amino-ethoxy)-ethoxy]-acetyl)2-(γ-Glu)-CO-(CH2)10-CH3)GGPSSGAPPPS-NH2) [Example 301]	cAMP Emax	99.2
